B1: Poly(rC)-binding protein 1, residues 278 to 350; numbered along this chain, Q15365 (parent)
chain: TQTTHELTIPNNLIGCIIGRQGANINEIRQMSGAQIKIANPVEGSSGRQVTITGSAASISLAQYLINARLSSE

Variants of: B1
test protocol: abundance fitness (aPCA) (normalised: wild type 0, dead -1); higher = more abundant; growth selection in yeast, the domain comes from the species named
condition parameters: Homo sapiens
property label: abundance fitness
// response body must contain only the number

- mutation notation: "T8I"
  abundance fitness: -0.008
- mutation notation: "E27R"
  abundance fitness: 0.005
- mutation notation: "L13V"
  abundance fitness: -0.404
- mutation notation: "T53G"
  abundance fitness: -0.308

The value of abundance fitness measured for the variant N26M turned out to be -0.094

Record summary for I17C : reported abundance fitness = -0.928

Measured abundance fitness, L65G : -0.416
